Sourced from patent US10513547B2

tgt: HLA-A*02:01 (Homo sapiens, UniProt P04439, D140Y/D185E/D98H/E176V/E277Q/G131W/G231S/I119V/I121R/I166T/I218V/L300P/L318F/N151K/N90K/P208A/P217A/Q86G/Q94H/R138H/R169H/T345S)
assay comment: MHC binding assay (UV-ligand exchange, beta2m ELISA, peptide exchange yield)
run parameters: binding to HLA-A*02:01
measured attribute: Peptide exchange (MHC class I binding score, peptide exchange yield)

>>> print(df.to_string())
                                  substance      readout_value
0  132 (ALLNAILHSA; listed as Homo sapiens) [compound 132]  “+++” (≥50 = +++)
1  57 (NLLEKENYL; listed as Homo sapiens) [compound 57]  “+++” (≥50 = +++)
2  116 (LVYQFVHPI; listed as Homo sapiens) [compound 116]   “++” (≥20% = ++)
3  32 (KLNTETFGV; listed as Homo sapiens) [compound 32]   “++” (≥20% = ++)
4  15 (LQLDKEFQL; listed as Homo sapiens) [compound 15]  “+++” (≥50 = +++)
5  79 (SLAADQLLKL; listed as Homo sapiens) [compound 79]   “++” (≥20% = ++)
6  46 (GLDDRYSLV; listed as Homo sapiens) [compound 46]  “+++” (≥50 = +++)
7  157 (SLIERDLKL; listed as Homo sapiens) [compound 157]  “+++” (≥50 = +++)
